tested on: Cholecystokinin receptor type A (Rattus norvegicus, UniProt P30551)
Sequence (P30551 whole entry): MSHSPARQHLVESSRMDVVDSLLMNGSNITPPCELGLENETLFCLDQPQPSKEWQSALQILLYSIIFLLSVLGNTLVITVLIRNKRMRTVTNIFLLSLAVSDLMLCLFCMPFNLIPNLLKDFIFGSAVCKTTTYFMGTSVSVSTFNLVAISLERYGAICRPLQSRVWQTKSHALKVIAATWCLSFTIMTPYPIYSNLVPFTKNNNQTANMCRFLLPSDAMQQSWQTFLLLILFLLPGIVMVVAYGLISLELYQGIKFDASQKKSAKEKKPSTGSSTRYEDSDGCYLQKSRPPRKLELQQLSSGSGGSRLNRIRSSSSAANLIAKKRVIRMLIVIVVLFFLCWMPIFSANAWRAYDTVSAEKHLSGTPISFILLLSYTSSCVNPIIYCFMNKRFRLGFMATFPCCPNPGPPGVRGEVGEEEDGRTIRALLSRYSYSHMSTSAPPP
recorded metric: log10 IC50 (log10 of the value in nM)

compound	log10 IC50
O=C(Nc1ccc(Cl)cc1)Nc1cc2c3ccccc3nc-2c[nH]1	1.93
CN1C(=O)[C@@H](NC(=O)Nc2cc3c4ccccc4nc-3c[nH]2)N=C(c2ccccc2)c2ccccc21	2.04
CN1C(=O)[C@H](NC(=O)Nc2cc3c4ccccc4nc-3c[nH]2)N=C(c2ccccc2)c2ccccc21	1.95
CN1C(=O)C(NC(=O)Cc2c[nH]c3ccccc23)N=C(c2ccccc2)c2ccccc21 (stereo unspecified)	3.00
O=C(Cc1c[nH]c2ccccc12)Nc1cc2c3ccccc3nc-2c[nH]1	1.38

###

Listed below: IC50 values for each entry.
test description: Tested for its activity to inhibit the binding of [125I]gastrin to gastric glands (gastrin) in guinea pig

smiles text	IC50 [nM]
CN1C(=O)[C@@H](NC(=O)Nc2ccc(Cl)cc2)N=C(c2ccccc2)c2ccccc21	540
CN1C(=O)[C@H](NC(=O)Nc2ccc(Cl)cc2)N=C(c2ccccc2)c2ccccc21	12
